Target: NHE3 (Homo sapiens)
Construct: expressed in transfected cells
Assay: Cell-based assay of NHE-3 activity (pre-incubation inhibition), human
Settings: human Preincubation
Counter-ions that a name gives are not always drawn.
READOUT LABEL: % inhibition

# COMPOUND, % inhibition
measured = [
    ("Cc1cc(S(=O)(=O)N2CC[C@@H](COc3ccnc(CNC(=O)NCCCCNC(=O)NCc4cc(OC[C@@H]5CCN(S(=O)(=O)c6ccc(O[C@H]7c8cc(Cl)cc(C#N)c8C[C@@H]7N(C)C)c(C)c6)C5)ccn4)c3)C2)ccc1O[C@H]1c2cc(Cl)cc(C#N)c2C[C@@H]1N(C)C [Example 51]", "B (40-70%)"),
    ("N[C@@H]1CCCN([C@H]2Cc3c(Cl)cc(Cl)cc3[C@@H]2Oc2ccc(S(=O)(=O)N3CC[C@H](OCCOCCNC(=O)NCCCCNC(=O)NCCOCCO[C@H]4CCN(S(=O)(=O)c5ccc(O[C@H]6c7cc(Cl)cc(Cl)c7C[C@@H]6N6CCC[C@@H](N)C6)cc5)C4)C3)cc2)C1 [Example 94]", "C (>70%)"),
    ("COc1cc(O[C@H]2c3cc(Cl)cc(Cl)c3C[C@@H]2N2CCC[C@@H](N)C2)ccc1S(=O)(=O)NCCOCCOCCNC(=O)NCCCCNC(=O)NCCOCCOCCNS(=O)(=O)c1ccc(O[C@H]2c3cc(Cl)cc(Cl)c3C[C@@H]2N2CCC[C@@H](N)C2)cc1OC [Example 101]", "C (>70%)"),
    ("CN(C)[C@@H]1CCCN([C@H]2Cc3c(C#N)cc(Cl)cc3[C@@H]2Oc2ccc(S(=O)(=O)NCCOCCOCCNC(=O)NCCCCNC(=O)NCCOCCOCCNS(=O)(=O)c3ccc(O[C@H]4c5cc(Cl)cc(C#N)c5C[C@@H]4N4CCC[C@@H](N(C)C)C4)cc3)cc2)C1 [Example 121]", "B (40-70%)"),
    ("CC(C)[C@@H](COCCOCCNC(=O)NCCCCNC(=O)NCCOCCOC[C@@H](NS(=O)(=O)c1ccc(O[C@H]2c3cc(Cl)cc(Cl)c3C[C@@H]2N2CCC[C@@H](N)C2)cc1)C(C)C)NS(=O)(=O)c1ccc(O[C@H]2c3cc(Cl)cc(Cl)c3C[C@@H]2N2CCC[C@@H](N)C2)cc1 [Example 98, dihydrochloride]", "C (>70%)"),
]

## Input % inhibition for O=C(NCCCCNC(=O)NCCOCCN1CC[C@H](NS(=O)(=O)c2ccc(O[C@H]3c4cc(Cl)cc(Cl)c4C[C@@H]3N3CCNCC3)c(F)c2)C1)NCCOCCN1CC[C@H](NS(=O)(=O)c2ccc(O[C@H]3c4cc(Cl)cc(Cl)c4C[C@@H]3N3CCNCC3)c(F)c2)C1 [Example 106, (trifluoroacetate)] ?
## Output C (>70%)

* * *

Target: NHE3 (Homo sapiens, UniProt P48764)
Construct: expressed in transfected cells
Test: Cell-based assay of NHE-3 activity (persistent inhibition), human
Conditions: human Persistence, 60 min incubation then washout

# SMILES NOTATION, ASSAYED TARGET, % inhibition
rows = [
    ("Cc1cc(O[C@H]2c3cc(Cl)cc(Cl)c3C[C@@H]2N(C)C)c(F)cc1S(=O)(=O)NCCOCCOCCNC(=O)NCCCCNC(=O)NCCOCCOCCNS(=O)(=O)c1cc(F)c(O[C@H]2c3cc(Cl)cc(Cl)c3C[C@@H]2N(C)C)cc1C", "NHE3 (Homo sapiens, UniProt P48764)", "C (>70%)"),
    ("CN1CCN([C@H]2Cc3c(Cl)cc(Cl)cc3[C@@H]2Oc2ccc(S(=O)(=O)NCCOCCOCCNC(=O)NCCCCNC(=O)NCCOCCOCCNS(=O)(=O)c3ccc(O[C@H]4c5cc(Cl)cc(Cl)c5C[C@@H]4N4CCN(C)CC4)cc3)cc2)CC1", "NHE3 (Homo sapiens, UniProt P48764)", "C (>70%)"),
    ("C[C@@H]1CN([C@H]2Cc3c(C#N)cc(Cl)cc3[C@@H]2Oc2ccc(S(=O)(=O)N[C@@H]3CCN(CCOCCNC(=O)NCCCCNC(=O)NCCOCCN4CC[C@@H](NS(=O)(=O)c5ccc(O[C@H]6c7cc(Cl)cc(C#N)c7C[C@@H]6N6CCN[C@H](C)C6)cc5)C4)C3)cc2)CCN1", "NHE3 (Homo sapiens, UniProt P48764)", "C (>70%)"),
]

* * *

Molecular target: NHE3 (Homo sapiens)
Construct: expressed in transfected cells
Test: Cell-based assay of NHE-3 activity (pre-incubation inhibition), human
Conditions: human Preincubation, 0-30 μM test compound
READOUT LABEL: pIC50

# MOLECULE, pIC50
records = [
    ("CN1CCCN([C@H]2Cc3c(C#N)cc(Cl)cc3[C@@H]2Oc2ccc(S(=O)(=O)N[C@@H]3CCN(CCOCCNC(=O)NCCCCNC(=O)NCCOCCN4CC[C@@H](NS(=O)(=O)c5ccc(O[C@H]6c7cc(Cl)cc(C#N)c7C[C@@H]6N6CCCN(C)CC6)cc5)C4)C3)cc2)CC1", "A (NHE3 pIC50 < 6)"),
    ("CN(C)[C@H]1Cc2c(Cl)cc(Cl)cc2[C@@H]1Oc1ccc(S(=O)(=O)NCCOCCOCCNC(=O)NCCCCNC(=O)NCCOCCOCCNS(=O)(=O)c2ccc(O[C@H]3c4cc(Cl)cc(Cl)c4C[C@@H]3N(C)C)c(F)c2)cc1F", "C (NHE3 pIC50 > 7)"),
    ("N#Cc1cc(Cl)cc2c1C[C@H](N1CCC[C@@H](N)C1)[C@H]2Oc1ccc(S(=O)(=O)NCCOCCOCCNC(=O)NCCCCNC(=O)NCCOCCOCCNS(=O)(=O)c2ccc(O[C@H]3c4cc(Cl)cc(C#N)c4C[C@@H]3N3CCC[C@@H](N)C3)c(F)c2)cc1F", "A (NHE3 pIC50 < 6)"),
    ("COc1cc(O[C@H]2c3cc(Cl)cc(Cl)c3C[C@@H]2N2CCC[C@@H](N)C2)ccc1S(=O)(=O)NCCOCCOCCNC(=O)NCCCCNC(=O)NCCOCCOCCNS(=O)(=O)c1ccc(O[C@H]2c3cc(Cl)cc(Cl)c3C[C@@H]2N2CCC[C@@H](N)C2)cc1OC", "C (NHE3 pIC50 > 7)"),
    ("C[C@@H]1CN([C@H]2Cc3c(C#N)cc(Cl)cc3[C@@H]2Oc2ccc(S(=O)(=O)N[C@H]3CCN(CCOCCNC(=O)NCCCCNC(=O)NCCOCCN4CC[C@H](NS(=O)(=O)c5ccc(O[C@H]6c7cc(Cl)cc(C#N)c7C[C@@H]6N6C[C@@H](C)N[C@@H](C)C6)cc5)C4)C3)cc2)C[C@H](C)N1", "C (NHE3 pIC50 > 7)"),
    ("Cc1cc(S(=O)(=O)NCCOCCOCCNC(=O)NCCCCNC(=O)NCCOCCOCCNS(=O)(=O)c2cc(C)c(O[C@H]3c4cc(Cl)cc(Cl)c4C[C@@H]3N(C)C)c(F)c2)cc(F)c1O[C@H]1c2cc(Cl)cc(Cl)c2C[C@@H]1N(C)C", "C (NHE3 pIC50 > 7)"),
]

// next entry
## Input pIC50 for Cc1cc(S(=O)(=O)N[C@@H]2CCN(CCOCCNC(=O)NCCCCNC(=O)NCCOCCN3CC[C@@H](NS(=O)(=O)c4ccc(O[C@H]5c6cc(Cl)cc(C)c6C[C@@H]5N5CCC[C@@H](N(C)C)C5)c(C)c4)C3)C2)ccc1O[C@H]1c2cc(Cl)cc(C)c2C[C@@H]1N1CCC[C@@H](N(C)C)C1 [Example 113, (trifluoroacetate)] ?
## Output C (NHE3 pIC50 > 7)

* * *

Biological target: NHE3 (Homo sapiens, UniProt P48764)
Construct: expressed in transfected cells
Sequence (P48764 26-834): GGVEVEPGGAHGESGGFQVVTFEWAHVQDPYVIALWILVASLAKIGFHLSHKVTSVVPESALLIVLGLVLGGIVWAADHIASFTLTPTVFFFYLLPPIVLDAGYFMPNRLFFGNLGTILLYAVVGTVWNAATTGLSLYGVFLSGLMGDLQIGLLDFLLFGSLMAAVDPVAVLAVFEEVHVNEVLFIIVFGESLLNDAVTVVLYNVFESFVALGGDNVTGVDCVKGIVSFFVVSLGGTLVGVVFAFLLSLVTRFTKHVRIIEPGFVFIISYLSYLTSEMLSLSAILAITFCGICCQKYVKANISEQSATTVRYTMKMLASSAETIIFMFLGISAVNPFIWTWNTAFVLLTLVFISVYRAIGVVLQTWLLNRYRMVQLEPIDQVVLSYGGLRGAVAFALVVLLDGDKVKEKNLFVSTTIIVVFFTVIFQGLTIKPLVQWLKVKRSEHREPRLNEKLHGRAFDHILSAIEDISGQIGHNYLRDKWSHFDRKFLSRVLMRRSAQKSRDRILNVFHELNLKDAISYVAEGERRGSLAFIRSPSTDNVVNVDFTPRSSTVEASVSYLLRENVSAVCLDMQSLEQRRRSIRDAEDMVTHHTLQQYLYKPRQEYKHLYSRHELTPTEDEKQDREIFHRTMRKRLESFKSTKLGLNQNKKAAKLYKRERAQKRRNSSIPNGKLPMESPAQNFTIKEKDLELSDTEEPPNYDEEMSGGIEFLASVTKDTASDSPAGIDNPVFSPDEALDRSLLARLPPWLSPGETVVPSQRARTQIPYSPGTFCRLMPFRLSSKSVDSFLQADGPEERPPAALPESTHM
Sequence (Q99653 2-195 partner limits assumed): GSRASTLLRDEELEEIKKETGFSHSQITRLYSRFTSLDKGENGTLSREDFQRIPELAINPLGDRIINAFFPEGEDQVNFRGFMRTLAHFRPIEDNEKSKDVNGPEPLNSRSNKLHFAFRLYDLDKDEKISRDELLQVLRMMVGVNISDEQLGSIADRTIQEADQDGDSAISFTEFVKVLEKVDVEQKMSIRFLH
Test: Cell-based assay of NHE-3 activity (persistent inhibition), human
Settings: human Persistence, 60 min incubation then washout
READOUT LABEL: % inhibition

Here are 6 compounds together with their reported answers.
# COMPOUND, % inhibition
rows = [
    ("Cc1cc(O[C@H]2c3cc(Cl)cc(Cl)c3C[C@@H]2N2CCC[C@@H](N)C2)ccc1S(=O)(=O)NCCOCCOCCNC(=O)NCCCCNC(=O)NCCOCCOCCNS(=O)(=O)c1ccc(O[C@H]2c3cc(Cl)cc(Cl)c3C[C@@H]2N2CCC[C@@H](N)C2)cc1C", "C (>70%)"),
    ("N[C@@H]1CCCN([C@H]2Cc3c(Cl)cc(Cl)cc3[C@@H]2Oc2ccc(S(=O)(=O)NCCCCCCCCNC(=O)NCCCCNC(=O)NCCCCCCCCNS(=O)(=O)c3ccc(O[C@H]4c5cc(Cl)cc(Cl)c5C[C@@H]4N4CCC[C@@H](N)C4)cc3)cc2)C1", "A (NHE3 < 40%)"),
    ("N#Cc1cc(Cl)cc2c1C[C@H](N1CCNCC1)[C@H]2Oc1ccc(S(=O)(=O)N[C@H]2CCN(CCOCCNC(=O)NCCCCNC(=O)NCCOCCN3CC[C@H](NS(=O)(=O)c4ccc(O[C@H]5c6cc(Cl)cc(C#N)c6C[C@@H]5N5CCNCC5)cc4)C3)C2)cc1 [Example 107, (trifluoroacetate)]", "C (>70%)"),
    ("Cc1cc(S(=O)(=O)NCCOCCOCCNC(=O)NCCCCNC(=O)NCCOCCOCCNS(=O)(=O)c2cc(C)c(O[C@H]3c4cc(Cl)cc(Cl)c4C[C@@H]3N3CCC[C@@H](N)C3)cc2C)c(C)cc1O[C@H]1c2cc(Cl)cc(Cl)c2C[C@@H]1N1CCC[C@@H](N)C1", "C (>70%)"),
    ("CN(C)[C@H]1Cc2c(OC(F)(F)F)cc(Cl)cc2[C@@H]1Oc1ccc(S(=O)(=O)NCCOCCOCCNC(=O)NCCCCNC(=O)NCCOCCOCCNS(=O)(=O)c2ccc(O[C@H]3c4cc(Cl)cc(OC(F)(F)F)c4C[C@@H]3N(C)C)cc2)cc1", "A (NHE3 < 40%)"),
    ("O=C(NCCCCNC(=O)NCCOCCN1CC[C@H](NS(=O)(=O)c2ccc(O[C@H]3c4cc(Cl)cc(Cl)c4C[C@@H]3N3CCNCC3)c(F)c2)C1)NCCOCCN1CC[C@H](NS(=O)(=O)c2ccc(O[C@H]3c4cc(Cl)cc(Cl)c4C[C@@H]3N3CCNCC3)c(F)c2)C1 [Example 106, (trifluoroacetate)]", "C (>70%)"),
]

## Input % inhibition for "N#Cc1cc(Cl)cc2c1C[C@H](N1CCNCC1)[C@H]2Oc1ccc(S(=O)(=O)N[C@@H]2CCN(CCOCCNC(=O)NCCCCNC(=O)NCCOCCN3CC[C@@H](NS(=O)(=O)c4ccc(O[C@H]5c6cc(Cl)cc(C#N)c6C[C@@H]5N5CCNCC5)c(F)c4)C3)C2)cc1F" ?
## Output C (>70%)
